The sequences listed here are annotated with their switch fluorescence ratio.
test system: ATP; assay: switch fluorescence ratio, 500 uM ATP over buffer (Cy3 cluster intensity, sum of 5 cycles each) (fold (ratio)); higher = stronger signal-on switching upon ATP binding; sequences stand for … in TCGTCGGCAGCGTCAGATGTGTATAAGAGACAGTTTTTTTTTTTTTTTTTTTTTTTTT…TC; conditions: aptamer strand: ATP DNA aptamer (quencher-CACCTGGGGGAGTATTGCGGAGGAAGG + anchor), 100 nM annealed; ATP concentration: 500 uM;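 also: ATP exposure 15 min at 22 °C before imaging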
Measurement label: switch fluorescence ratio

# Construct sequence, Target or system, Measurement label, Result value
rows = [
    ("CGTATGAATA", "ATP", "switch fluorescence ratio", 0.984),
    ("CCACGCCAGG", "ATP", "switch fluorescence ratio", 2.79),
    ("AGGTGGGTG", "ATP", "switch fluorescence ratio", 1.04),
    ("GGCCAAGGTG", "ATP", "switch fluorescence ratio", 2.05),
    ("TTCAGTGGAG", "ATP", "switch fluorescence ratio", 1.01),
    ("GGTAGGAGCT", "ATP", "switch fluorescence ratio", 1.02),
    ("GGTTACTGTT", "ATP", "switch fluorescence ratio", 1.08),
    ("GTGGGAAGGG", "ATP", "switch fluorescence ratio", 0.996),
    ("TTTAGGAGTT", "ATP", "switch fluorescence ratio", 0.996),
    ("CCTAGGGGTC", "ATP", "switch fluorescence ratio", 1.09),
    ("GCTCTCGGTG", "ATP", "switch fluorescence ratio", 1.01),
    ("CATTTACGCT", "ATP", "switch fluorescence ratio", 1.03),
    ("AAAGGGTGGG", "ATP", "switch fluorescence ratio", 1.01),
    ("CCGAAGAGTC", "ATP", "switch fluorescence ratio", 1.66),
    ("AATTTAGCCA", "ATP", "switch fluorescence ratio", 1.02),
    ("GAGCAGCTCG", "ATP", "switch fluorescence ratio", 0.999),
    ("TTTGCATATA", "ATP", "switch fluorescence ratio", 1.09),
    ("TATTTGGACG", "ATP", "switch fluorescence ratio", 1.05),
    ("GTTAGGGGAT", "ATP", "switch fluorescence ratio", 1),
    ("CTCTTTGCAG", "ATP", "switch fluorescence ratio", 1.09),
    ("GAGTTAAACA", "ATP", "switch fluorescence ratio", 0.994),
    ("GGTTCTTATA", "ATP", "switch fluorescence ratio", 1.05),
    ("TATCGGGACT", "ATP", "switch fluorescence ratio", 0.975),
    ("TGGGGAACGG", "ATP", "switch fluorescence ratio", 0.981),
    ("AAGTTGTGGT", "ATP", "switch fluorescence ratio", 1.01),
    ("ACGAGGCCAG", "ATP", "switch fluorescence ratio", 1.23),
    ("TTGGGGTTAC", "ATP", "switch fluorescence ratio", 1.11),
    ("GTTTAAGGGT", "ATP", "switch fluorescence ratio", 0.996),
    ("CAGGGACGTT", "ATP", "switch fluorescence ratio", 0.987),
    ("TATATGTAAT", "ATP", "switch fluorescence ratio", 1.01),
    ("AGGCCCCCCA", "ATP", "switch fluorescence ratio", 1.33),
    ("ATGGCAGGTA", "ATP", "switch fluorescence ratio", 0.992),
    ("TTGCTAGGGC", "ATP", "switch fluorescence ratio", 1.01),
    ("AATCTAGATT", "ATP", "switch fluorescence ratio", 1),
    ("TACGGGGCGA", "ATP", "switch fluorescence ratio", 1.07),
    ("TGGAGATTGG", "ATP", "switch fluorescence ratio", 0.969),
    ("GGTAGTGAGT", "ATP", "switch fluorescence ratio", 0.977),
    ("TTATATTTCT", "ATP", "switch fluorescence ratio", 1.01),
    ("ATGGCAAAGA", "ATP", "switch fluorescence ratio", 0.983),
    ("GTTTTTTTTA", "ATP", "switch fluorescence ratio", 0.989),
    ("ATTTCTAGGA", "ATP", "switch fluorescence ratio", 0.987),
    ("TGTCGTAGGA", "ATP", "switch fluorescence ratio", 1.01),
    ("TTTTAGAGCG", "ATP", "switch fluorescence ratio", 1.02),
]
